# log(43000/Ki) per entry for Carbonic anhydrase 2 (Homo sapiens) (UniProt P00918)
observed_property: log(43000/Ki)

[ask] Param item = `NS(=O)(=O)Oc1ccc(NC(=O)NC23CC4CC(CC(C4)C2)C3)cc1` ; retrieve measured log(43000/Ki).
[reply] 1.96

[ask] What value of log(43000/Ki) has been reported for the following compound? `Cc1cc(C)cc(NC(=O)Nc2ccc(NS(N)(=O)=O)cc2)c1`
[reply] 1.8

P: NS(=O)(=O)Nc1ccc(NC(=O)NCCc2ccccc2)cc1
Q: NS(=O)(=O)Nc1ccc(NC(=O)Nc2ccccc2-c2ccccc2)cc1
[ask] // which entry reports the smaller log(43000/Ki), P or Q ? The response must carry the label of the picked entry.
[reply] Q
(Q: 1.68, P: 2.44)

* * *

The following compounds each carry a recorded log(43000/Ki) for Carbonic anhydrase 9 (Homo sapiens).
observed_property: log(43000/Ki)

[ask] Fill in the blank: the reported log(43000/Ki) of `CCCCOc1ccc(NC(=O)Nc2ccc(NS(N)(=O)=O)cc2)cc1` is ____.
[reply] 3.43

[ask] Any idea what log(43000/Ki) was measured for `NS(=O)(=O)Nc1ccc(NC(=O)Nc2ccccc2-c2ccccc2)cc1` ?
[reply] 2.47

[ask] Record request: log(43000/Ki) value, item CC(NC(=O)Nc1ccc(NS(N)(=O)=O)cc1)c1cccc2ccccc12 (stereo unspecified)
[reply] 3.35

[ask] Param item = `NS(=O)(=O)Nc1ccc(NC(=O)NCc2ccccc2)cc1` ; retrieve measured log(43000/Ki).
[reply] 3.63

[ask] What value of log(43000/Ki) has been recorded for this entry: `NS(=O)(=O)Oc1ccc(NC(=O)NC23CC4CC(CC(C4)C2)C3)cc1`
[reply] 3.31

[ask] Dear colleague, I am looking for the recorded log(43000/Ki) of the following compound: `NS(=O)(=O)Nc1ccc(NC(=O)Nc2cccc([N+](=O)[O-])c2)cc1`
[reply] 3.43

* * *

Carbonic anhydrase 9 (Homo sapiens) (UniProt Q16790): recorded log(43000/Ki) for assorted compounds
observed_property: log(43000/Ki)

[ask] Bench note: what log(43000/Ki) did `NS(=O)(=O)Nc1ccc(NC(=O)NCCc2ccccc2)cc1` show?
[reply] 3.59

[ask] So what does the record say about log(43000/Ki) for `COc1ccc(NC(=O)Nc2ccc(NS(N)(=O)=O)cc2)c(C)c1` ?
[reply] 3.31

[ask] Please give the measured log(43000/Ki) for this compound: `NS(=O)(=O)Nc1ccc(NC(=O)Nc2ccc(Cl)cc2)cc1`
[reply] 3

[ask] log(43000/Ki) lookup needed for `COc1ccc(C)cc1NC(=O)Nc1ccc(NS(N)(=O)=O)cc1` , thanks.
[reply] 3.03

[ask] Value lookup for log(43000/Ki); key = `CC(C)c1ccccc1NC(=O)Nc1ccc(NS(N)(=O)=O)cc1`
[reply] 2.64

[ask] I am curious: what log(43000/Ki) value has been reported for `NS(=O)(=O)Nc1ccc(NC(=O)NCc2ccco2)cc1` ?
[reply] 3.35

[ask] I am curious: what log(43000/Ki) value has been reported for `NS(=O)(=O)Nc1ccc(NC(=O)NC2CCCCC2)cc1` ?
[reply] 2.55

[ask] Given the compound `Cc1cc(C)cc(NC(=O)Nc2ccc(NS(N)(=O)=O)cc2)c1` , what is its reported log(43000/Ki)?
[reply] 3.63

* * *

target: UniProt:P00918
observed_property: log(43000/Ki)

[ask] Suppose we examine the molecule `NS(=O)(=O)Nc1ccc(NC(=O)Nc2ccc(Cl)cc2)cc1` ; what log(43000/Ki) value has been reported?
[reply] 2.13

[ask] I'd like to know its log(43000/Ki). The molecule in question is `NS(=O)(=O)Nc1ccc(NC(=O)Nc2cccc([N+](=O)[O-])c2)cc1`
[reply] 2.01

[ask] I would be grateful if you could share the reported log(43000/Ki) for `COc1ccc(C)cc1NC(=O)Nc1ccc(NS(N)(=O)=O)cc1` .
[reply] 1.99

[ask] What measured log(43000/Ki) goes with `NS(=O)(=O)Nc1ccc(NC(=O)NCc2ccccc2)cc1` ?
[reply] 2.47

[ask] Dear colleague, I am looking for the recorded log(43000/Ki) of the following molecule: `NS(=O)(=O)Nc1ccc(NC(=O)NC2CCCCC2)cc1`
[reply] 2.08

[ask] Data request, read-out log(43000/Ki), for `CCCCOc1ccc(NC(=O)Nc2ccc(NS(N)(=O)=O)cc2)cc1`
[reply] 2.14

[ask] GET /values?readout=log(43000/Ki)&item= CC(NC(=O)Nc1ccc(NS(N)(=O)=O)cc1)c1cccc2ccccc12 (stereo not given)
[reply] 2.02

[ask] Value lookup for log(43000/Ki); key = `NS(=O)(=O)Nc1ccc(NC(=O)NCc2ccco2)cc1`
[reply] 2.1

[ask] What measured log(43000/Ki) goes with `COc1ccc(NC(=O)Nc2ccc(NS(N)(=O)=O)cc2)c(C)c1` ?
[reply] 2.14

[ask] Report log(43000/Ki) for `CC(C)c1ccccc1NC(=O)Nc1ccc(NS(N)(=O)=O)cc1` please.
[reply] 1.8

The measurements presented in this section are drawn from ChEMBL document CHEMBL2331360.
